- system-tested: aggregated (oligomeric) P301S 2N4R tau, pHrodo-labelled (human, UniProt P10636 1-758, pHrodo Red maleimide label); also: test concentration or dose not given here
- Sequence (P10636 other isoform, or with tags, fused parts or gaps P301S P301S): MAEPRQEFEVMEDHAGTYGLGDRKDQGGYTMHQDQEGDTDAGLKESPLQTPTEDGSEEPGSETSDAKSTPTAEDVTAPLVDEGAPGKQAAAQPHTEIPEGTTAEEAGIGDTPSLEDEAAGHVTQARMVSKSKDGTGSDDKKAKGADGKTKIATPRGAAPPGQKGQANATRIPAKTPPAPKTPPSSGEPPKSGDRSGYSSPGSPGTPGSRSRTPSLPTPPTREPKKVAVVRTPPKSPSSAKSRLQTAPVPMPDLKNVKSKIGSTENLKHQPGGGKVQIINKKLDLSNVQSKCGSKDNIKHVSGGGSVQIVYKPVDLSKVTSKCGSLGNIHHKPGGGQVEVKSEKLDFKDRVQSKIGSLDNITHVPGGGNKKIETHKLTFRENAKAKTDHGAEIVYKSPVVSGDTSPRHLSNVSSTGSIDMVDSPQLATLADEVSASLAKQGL
- test-protocol: cell-based or functional assay
endpoint: inhibition of aggregated tau uptake into human iPSC-derived neurons (%)
Numeric only. Scale: %

Could you share which inhibition of aggregated tau uptake into human iPSC-derived neurons value was measured for #44 VH4VK3 humanised hIgG1 (antibody, V domains shown, also called VH4Vκ3; Clone VH4VK3 (D)) VH: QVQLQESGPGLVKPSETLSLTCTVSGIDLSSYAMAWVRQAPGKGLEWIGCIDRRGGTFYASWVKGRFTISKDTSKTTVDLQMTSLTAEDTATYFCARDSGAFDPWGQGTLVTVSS VL: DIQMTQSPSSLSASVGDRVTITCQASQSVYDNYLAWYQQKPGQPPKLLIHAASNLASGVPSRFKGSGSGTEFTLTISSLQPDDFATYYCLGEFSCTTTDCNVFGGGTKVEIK ? 36.3

What value of measured inhibition of aggregated tau uptake into human iPSC-derived neurons is listed for #44 VH3VK4 humanised hIgG1 (antibody, V domains shown, also called VH3Vκ4; Clone VH3VK4 (B)) VH: QVQLQESGPGLVKPSETLSLTCTVSGIDLSSYAMAWVRQAPGKGLEWIGCIDRRGGTFYASWVKGRFTISKTSTTVDLQMTSLTAEDTATYFCARDSGAFDPWGQGTLVTVSS VL: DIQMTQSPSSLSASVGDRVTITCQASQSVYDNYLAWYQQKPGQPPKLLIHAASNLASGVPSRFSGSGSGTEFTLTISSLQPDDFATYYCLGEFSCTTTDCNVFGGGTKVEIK ? 33.3
